study.system: Estrogen receptor (Homo sapiens)
Sequence (P03372 whole entry): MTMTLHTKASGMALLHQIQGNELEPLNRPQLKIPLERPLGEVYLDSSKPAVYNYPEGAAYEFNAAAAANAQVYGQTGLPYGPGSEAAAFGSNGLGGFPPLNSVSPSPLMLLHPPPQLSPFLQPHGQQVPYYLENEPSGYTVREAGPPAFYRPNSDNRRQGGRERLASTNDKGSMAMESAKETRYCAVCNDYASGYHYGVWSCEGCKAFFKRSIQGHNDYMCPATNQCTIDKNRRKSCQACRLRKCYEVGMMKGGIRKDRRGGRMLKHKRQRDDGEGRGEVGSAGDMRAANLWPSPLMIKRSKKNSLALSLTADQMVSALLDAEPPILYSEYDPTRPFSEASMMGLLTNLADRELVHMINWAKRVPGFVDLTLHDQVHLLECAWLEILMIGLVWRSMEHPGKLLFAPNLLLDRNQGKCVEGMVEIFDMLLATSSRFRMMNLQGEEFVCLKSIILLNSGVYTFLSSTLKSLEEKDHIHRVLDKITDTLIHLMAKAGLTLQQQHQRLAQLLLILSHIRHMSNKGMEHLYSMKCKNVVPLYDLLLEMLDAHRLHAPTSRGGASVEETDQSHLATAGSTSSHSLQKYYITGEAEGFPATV
experiment.summary: Binding affinity to estrogen receptor (unknown origin)
reported.metric: IC50 (nM)
Just the number in nM, nothing appended.

Form field IC50 for item `CCC(Cc1ccccc1)=C(c1ccc(O)cc1)c1ccc(OCCN2CCCC2)cc1` on Estrogen receptor (Homo sapiens): 20
